# Tested on: C3H 10T1/2
# ASSAY SUMMARY: Inhibition of purmorphamine-induced osteoblast differentiation in mouse C3H 10T1/2 cells assessed as reduction in alkaline phosphatase level preincubated for 1 hr followed by purmorphamine addition for 4 days by luminescence based assay
# Format: functional, cell-based
ASSAY METRIC: IC50 (nM)

Completed entries (count: 2):
CN(CCCNC(=O)c1nn(C)c2c1CS(=O)(=O)c1ccccc1-2)Cc1ccccc1; 310
COCCNC(=O)C1CCN(C(=O)c2cc3sccc3n2Cc2ccc(F)cc2)CC1; 90

a = COc1ccccc1CCNC(=O)CCCn1nc(C)c2c(C)n(-c3ccc(C)cc3)nc2c1=O
b = CCOc1ccc(Oc2nc(Nc3ccc(C)cc3)nc(N(C)C)n2)nn1
Req: // pick min by IC50: a , b State the label of the item chosen.
Resp: b
(b: 320 nM, a: 540 nM)
